test system: U-251; assay: NCI tumour cell line growth inhibition, 48 h
Active and inactive are the calls of the source. Rule as the data show it: active = GI50 up to about 1.1 µM and inactive = higher.
assay readout: GI50

Exam item: Consider the compound CC1/C(=N\O)CC(c2ccccc2)N(C)C1c1ccccc1 (centres undefined) . State its measured GI50.
Marked response: > 100 µM (inactive)

Exam item: Consider the compound CC(C)(Br)C(Br)CCC1(C2CO2)CO1 (centres undefined) . State its measured GI50.
Marked response: > 5 µM (inactive)

Exam item: Consider the compound COc1ccc(NC(=O)C(=O)NO)c(OC)c1 . State its measured GI50.
Marked response: 16.7 µM (inactive)

Exam item: Consider the compound O=C(O)c1cccc(CN2CCCCC2)c1 . State its measured GI50.
Marked response: > 100 µM (inactive)

Exam item: Consider the compound C=CC(=O)N1C/C(=C\c2ccc([N+](=O)[O-])cc2)C(=O)/C(=C/c2ccc([N+](=O)[O-])cc2)C1 . State its measured GI50.
Marked response: 0.0697 µM (active)

---
Exam item: Consider the compound Cc1ncc([N+](=O)[O-])n1CC[N+](C)([O-])CCCCn1ccnc1[N+](=O)[O-] (centres undefined) . State its measured GI50.
Marked response: > 100 µM (inactive)

Exam item: Consider the compound O=S1(=O)CCN(c2ccccc2CC(c2c[nH]c3ccccc23)c2c[nH]c3ccccc23)CC1 . State its measured GI50.
Marked response: 7.87 µM (inactive)

Exam item: Consider the compound CCC(=O)OC1CCn2c1nc1c2C(=O)C(C)=C(NC(C)=O)C1=O (centres undefined) . State its measured GI50.
Marked response: 2.08 µM (inactive)

Exam item: Consider the compound COc1cc(N(CCC#N)CCC#N)ccc1C(/N=N/c1ccccc1C)=N\NC(=O)c1ccc(C)cc1 . State its measured GI50.
Marked response: 42.3 µM (inactive)

Exam item: Consider the compound COc1ccc2nc(-c3ccc(O)cc3)cn2c1 . State its measured GI50.
Marked response: 44.7 µM (inactive)

Exam item: Consider the compound COc1ccc(C(=O)O)c(Cc2cccc3ccccc23)c1 . State its measured GI50.
Marked response: > 100 µM (inactive)
